Molecular target: wildtype feline IL-31 (Feline_IL31_wildtype) (feline)
Sequence (chain, as listed by the source limits assumed, form in doubt): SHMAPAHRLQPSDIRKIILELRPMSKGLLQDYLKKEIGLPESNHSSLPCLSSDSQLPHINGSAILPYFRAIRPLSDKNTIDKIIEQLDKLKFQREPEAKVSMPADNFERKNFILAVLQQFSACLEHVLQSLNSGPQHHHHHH
Assay: SPR (Biacore), immobilised IL-31, 1:1 fit
READOUT NAME: koff (s⁻¹)
A number alone suffices; assume s⁻¹.

# example entries with known answers
Query block: State its koff for this binder: Feline 15H05 2.2 (antibody, V domains shown) VH: QVLLVQSGAEVRTPGASVKIFCKASGYGFTSYTIHWVRQSPAQGLEWMGNINPTSGYTENNQRFKDRLTLTADTSTNTAYMELSSLRSADTAMYYCARWGFKYDGEWSFDVWGAGTTVTVSS VL: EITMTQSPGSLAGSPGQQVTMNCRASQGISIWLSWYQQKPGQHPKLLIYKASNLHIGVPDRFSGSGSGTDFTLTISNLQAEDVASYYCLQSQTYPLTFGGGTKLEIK
Result block: 0.00195

Query block: State its koff for this binder: Feline 15H05 1.1 FW2_3 (antibody, V domains shown) VH: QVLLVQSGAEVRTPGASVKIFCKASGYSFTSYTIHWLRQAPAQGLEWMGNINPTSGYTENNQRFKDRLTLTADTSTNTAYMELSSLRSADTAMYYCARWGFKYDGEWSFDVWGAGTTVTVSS VL: EIQMTQSPSSLSASPGDRVTITCRASQGISIWLSWYQQKPGNIPKVLINKASNLHIGVPPRFSGSGSGTHFTLTITSLQPEDIATYYCLQSQTYPLTFGGGTKLEIK
Result block: 0.00116

Query block: State its koff for this binder: Feline 15H05 1.1 (antibody, V domains shown) VH: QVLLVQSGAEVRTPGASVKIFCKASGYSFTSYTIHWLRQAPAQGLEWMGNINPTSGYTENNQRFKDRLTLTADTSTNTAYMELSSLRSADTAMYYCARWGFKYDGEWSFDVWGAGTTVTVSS VL: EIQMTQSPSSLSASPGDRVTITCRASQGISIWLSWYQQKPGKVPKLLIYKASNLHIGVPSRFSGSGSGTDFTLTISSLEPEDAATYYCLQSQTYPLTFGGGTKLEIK
Result block: 0.00131

Query block: State its koff for this binder: Feline 15H05 1.1 L46V (antibody, V domains shown) VH: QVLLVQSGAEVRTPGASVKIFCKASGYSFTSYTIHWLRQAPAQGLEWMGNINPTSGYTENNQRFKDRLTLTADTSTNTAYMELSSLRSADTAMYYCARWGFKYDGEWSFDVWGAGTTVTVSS VL: EIQMTQSPSSLSASPGDRVTITCRASQGISIWLSWYQQKPGKVPKVLIYKASNLHIGVPSRFSGSGSGTDFTLTISSLEPEDAATYYCLQSQTYPLTFGGGTKLEIK
Result block: 0.000811

Further cases:
Query block: State its koff for this binder: Feline 11E12 1.1 FW2 (antibody, V domains shown) VH: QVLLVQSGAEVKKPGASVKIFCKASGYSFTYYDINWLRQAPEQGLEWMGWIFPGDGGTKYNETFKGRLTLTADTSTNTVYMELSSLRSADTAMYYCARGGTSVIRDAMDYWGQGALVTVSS VL: EIQMTQSPSSLSASPGDRVTITCRASESVDNYGISFMHWYQQKPGQPPKLLIYRASNLESGVPSRFSGSGSGTDFTLTISSLEPEDAATYYCQQSNKDPLTFGQGT
Result block: 0.000639
